target: HLA-DR DRB1*1501 (human)
test_method_notes: competition with 125I-labelled peptide for purified HLA-DR
readout_kind: pIC50
Just so you know, pIC50 here is -log10 of the concentration in molar units; reply with that number alone.

Suppose we examine the binder RREVHIYYLEKANKI (modifications not checked) [Flu.PA.127] ; what pIC50 value has been reported? 8.35
